# Assay: blockers of RIG-like receptor reporter activation – cell-based, Sendai virus stimulus, luciferase, 10K MLSCN set, TLR/RLR signaling modifier project, primary screen (AID 602276);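 further: firefly luciferase from ISG56 promoter only with Renilla not read in this screen; 0% = Sendai virus plus DMSO and 100% = medium plus DMSO without virus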
# Condition context: HEK293 RL24 IRF3 luciferase reporter, at 10 µM, hits give high values
The source made the active and inactive calls.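 How the source made its calls: active means inhibition at or above 50% at 10 µM; inactive means inhibition below 50%.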
Known inhibition of a selection of compounds

Consider the following illustrative entries.
[
  {
    "Compound": "CCN(CCNC(=O)CS(=O)(=O)Cc1nc(-c2cccc(OC)c2)oc1C)c1ccccc1",
    "inhibition": "13.7% (inactive)"
  },
  {
    "Compound": "CCCS(=O)(=O)NCCc1cc2cc(C)c(C)cc2[nH]c1=O",
    "inhibition": "4.21% (inactive)"
  },
  {
    "Compound": "COc1ccc(OCc2nc(C#N)c(N3CCN(c4ccc(OC)cc4)CC3)o2)cc1",
    "inhibition": "-5.28% (inactive)"
  },
  {
    "Compound": "CCn1c(SCC(=O)Nc2cc(NC(C)=O)ccc2OC)nnc1-c1ccccn1",
    "inhibition": "10.3% (inactive)"
  },
  {
    "Compound": "Cc1ccc(NC(=O)CSc2nnc(-c3cnccn3)n2Cc2ccco2)cc1C",
    "inhibition": "6.92% (inactive)"
  },
  {
    "Compound": "O=C(Nc1cccc(Cl)c1)N1CCN(Cc2ccccc2)CC1",
    "inhibition": "-35.1% (inactive)"
  },
  {
    "Compound": "CC(C)OC(=O)CN1C(=O)C(C)(C)Oc2ccc(C(=O)NC3CC3)cc21",
    "inhibition": "14.5% (inactive)"
  },
  {
    "Compound": "CCOC(=O)C1CCCN(C(=O)c2ccc(CS(=O)(=O)c3ccc(Br)cc3)o2)C1 (stereo unspecified)",
    "inhibition": "4.84% (inactive)"
  }
]

Request: Query: inhibition; subject: Cc1ccc(-c2cn3nc(C)c(C)nc3n2)cc1
Result: 20% (inactive)

Request: Query: inhibition; subject: NCCN1CCN(CCN)CC1
Result: 12.2% (inactive)

Request: Query: inhibition; subject: COC(=O)c1sc(N)c(C(=O)OC)c1CSc1nc2sc3c(c2c(=O)n1C)CCC3
Result: -6.85% (inactive)

---

# Assay: endothelial E-selectin expression blockers – imaging, HUVEC, immunofluorescence, MLSMR starter and 10KST1 sets, primary screen (AID 487);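 further: signal is fraction of cell area covered by stained E-selectin grains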
# Condition context: HUVEC TNFalpha-induced E-selectin immunofluorescence imaging, at 2 µM
The source made the active and inactive calls.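 Rule for the calls: active = visually confirmed hit in the image check and inhibition above 20%; inconclusive = visually confirmed hit but inhibition not above 20%; inactive = no visual hit in the image check.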
In this exercise, the only acceptable responses are 1 = active, 0 = inactive

[
  {
    "Molecule": "O=C(NCc1cccnc1)C1c2ccccc2C(=O)N1Cc1ccco1 (configuration not stated)",
    "Answer label": 0
  },
  {
    "Molecule": "Cc1nc2ccc(Br)cn2c1NC(C)(C)C",
    "Answer label": 0
  },
  {
    "Molecule": "COC(=O)C1=C(C)NC(=O)C1(Nc1ccc(Cl)cn1)C(F)(F)F (configuration not stated)",
    "Answer label": 0
  },
  {
    "Molecule": "CCCCn1nnc(NC(=O)Cc2ccc(Cl)cc2)n1",
    "Answer label": 0
  },
  {
    "Molecule": "O=C1C2CC=C(Cl)CC2C(=O)N1c1ncn[nH]1 (configuration not stated)",
    "Answer label": 0
  },
  {
    "Molecule": "CC(=O)c1c(C)[nH]c(C(=O)N2CCN(C(=O)c3ccco3)CC2)c1C",
    "Answer label": 0
  }
]

Request: Identify the outcome logged in this assay for the molecule shown: c1ccc2c(c1)CNc1ccccc1C2
Result: 0

Request: Identify the outcome logged in this assay for the molecule shown: CC1CCN(C(=O)CSc2nc3ccccc3[nH]2)CC1
Result: 1

Request: Identify the outcome logged in this assay for the molecule shown: CCOCCCn1c(=S)[nH]c2cc3c(cc2c1=O)OCO3
Result: 0

Request: Identify the outcome logged in this assay for the molecule shown: CCCOC(=O)c1ccc(-c2c(C)noc2-c2ccc(OC)cc2O)o1
Result: 0

Request: Identify the outcome logged in this assay for the molecule shown: CCCn1c(=NC(C)=O)c(C#N)cc2c(=O)n3cccc(C)c3nc21
Result: 0

Request: Identify the outcome logged in this assay for the molecule shown: COc1ccc(C)cc1NS(=O)(=O)c1ccc(NS(=O)(=O)c2ccc(NC(C)=O)cc2)cc1
Result: 0

Request: Identify the outcome logged in this assay for the molecule shown: O=S(NCc1ccco1)C12CC3CC(CC(C3)C1)C2 (configuration not stated)
Result: 0

Request: Identify the outcome logged in this assay for the molecule shown: COc1ccc2c(c1OC)C(=O)OC2CC(=O)c1ccc(O)cc1 (configuration not stated)
Result: 0

Request: Identify the outcome logged in this assay for the molecule shown: CC1CCN(c2nc3c(c(=O)[nH]c(=O)n3C)n2CCSc2ncccn2)CC1
Result: 0

---

# Assay: reduction of polyQ htt aggregates in cells – imaging, exon1htt(103Q)mCFP cells, high-content imaging, primary screen (AID 483);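 further: compound exposure lasted 3 days before fixation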
# Condition context: exon1htt(103Q)mCFP cell line, aggregate imaging, at 2 µM
Activity calls are given as the source filed them.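 Rule for the calls: active = visual image review flags a hit and inhibition of aggregation exceeds 20%; inconclusive = visual hit but inhibition at or below 20%; inactive = no hit on visual image review.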
In this exercise, the only acceptable responses are YES (active), NO (inactive)

Worked examples follow.
[
  {
    "Compound": "Cc1cc(=O)oc2c1ccc1oc(/C(=N/O)c3ccccc3)c(C)c12",
    "Answer label": "NO"
  },
  {
    "Compound": "c1ccc(-n2ncc3c(N4CCCCC4)ncnc32)cc1",
    "Answer label": "NO"
  },
  {
    "Compound": "CS(=O)(=O)NCC(c1cccnc1)N1CCN(c2ccc(F)cc2)CC1 (stereo unspecified)",
    "Answer label": "NO"
  },
  {
    "Compound": "COc1cc(C(=O)Nc2cccc(-c3nc4cc(C)ccc4o3)c2)cc(OC)c1OC",
    "Answer label": "NO"
  },
  {
    "Compound": "CCN1CCN(C(c2ccc(F)cc2)c2nnnn2Cc2cccs2)CC1 (stereo unspecified)",
    "Answer label": "NO"
  }
]

Request: Identify the outcome logged in this assay for the compound shown: COc1ccc(CCNC(=O)CSc2nncn2N)cc1OC
Result: NO

Request: Identify the outcome logged in this assay for the compound shown: CCCS(=O)(=O)N1CCN(C(=O)c2cccs2)CC1
Result: NO

Request: Identify the outcome logged in this assay for the compound shown: Cc1ccc(-n2c(Cn3cnc4ccccc43)nnc2SCC(=O)O)cc1
Result: NO

Request: Identify the outcome logged in this assay for the compound shown: CC(C)C(=O)Nc1ccc2c(c1)nc1n2CCSC1
Result: NO

Request: Identify the outcome logged in this assay for the compound shown: CN(C(=O)c1ccco1)c1nnc(C23CC4CC(CC(C4)C2)C3)s1
Result: NO

---

# Assay: endothelial E-selectin expression blockers – imaging, HUVEC, immunofluorescence, MLSMR starter and 10KST1 sets, primary screen (AID 487);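 further: signal is fraction of cell area covered by stained E-selectin grains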
# Condition context: HUVEC TNFalpha-induced E-selectin immunofluorescence imaging, at 2 µM; hits give high values
Category scheme (inhibition): range 1 (below -40%), range 2 (-40% to below -10%), range 3 (-10% or more)

Worked examples follow.
[
  {
    "Compound": "CCn1cc(C(=O)O)c(=O)c2cc(F)c(N3CCN(C(=O)Nc4ccccc4)CC3)cc21",
    "Answer label": "range 1"
  },
  {
    "Compound": "O=C(C1CCCN(S(=O)(=O)c2cccc3nonc23)C1)N1CCC(Cc2ccccc2)CC1 (configuration not stated)",
    "Answer label": "range 3"
  },
  {
    "Compound": "CCOc1ccc(Oc2nc(Nc3ccc(C)cc3)nc(N(C)C)n2)nn1",
    "Answer label": "range 2"
  },
  {
    "Compound": "Nn1c(SCC(=O)Nc2ccc(Oc3ccccc3)cc2)nnc1C1CC1",
    "Answer label": "range 1"
  },
  {
    "Compound": "COc1cccc(-n2nc(C(=O)Nc3ccc4c(c3)OCO4)c3ccccc3c2=O)c1",
    "Answer label": "range 2"
  },
  {
    "Compound": "COc1ccc(N2CCN(c3ccc(N)cc3C#N)CC2)cc1",
    "Answer label": "range 1"
  },
  {
    "Compound": "CC(=O)C1=C(C)Nc2ncnn2C1c1cccc(OCc2ccccc2)c1 (configuration not stated)",
    "Answer label": "range 1"
  },
  {
    "Compound": "CCOC(=O)N1CCC2(O)CCCCC2C1c1ccc(F)cc1 (configuration not stated)",
    "Answer label": "range 1"
  }
]

Request: Which class does Cc1ccc(C(C(=O)NC2CCCCC2)N(C(=O)c2csnn2)C2CCCC2)o1 (configuration not stated) fall in?
Result: range 1

Request: Which class does COc1ccc(NC(=O)C(C)NS(=O)(=O)c2ccc(NC(C)=O)cc2)cc1Cl (configuration not stated) fall in?
Result: range 3

Request: Which class does COc1cccc(/C=N/n2c(-c3ccco3)nc3ccccc3c2=O)c1 fall in?
Result: range 3

Request: Which class does COC(=O)c1[nH]c2ccc(C)cc2c1NC(=O)CN1CCCc2ccccc21 fall in?
Result: range 2

Request: Which class does CC(C)NC(=O)CSCc1ccccc1Cl fall in?
Result: range 3

Request: Which class does Cc1cc(C(=O)NCCCN2CCOCC2)n(-c2ccccc2)n1 fall in?
Result: range 2

Request: Which class does COc1ccc2nc(NC(=O)C3CCCN(S(=O)(=O)c4cccc5nsnc45)C3)sc2c1 (configuration not stated) fall in?
Result: range 3

Request: Which class does CCOC(=O)N1CCN(C(=O)c2n[nH]c(=O)c3ccccc23)CC1 fall in?
Result: range 2

Request: Which class does O=C(Nc1ccccc1C(=O)N1CCN(c2ccccc2)CC1)c1ccco1 fall in?
Result: range 1

Request: Which class does CC1=C(n2nnc3ccccc32)C(c2ccccc2)C(C#N)=C(N)O1 (configuration not stated) fall in?
Result: range 3

Request: Which class does CC1CCN(C(=O)Cn2cc3c(n2)CCCC3)CC1 fall in?
Result: range 3

Request: Which class does CCn1cc(C(=O)N=c2sc3ccccc3n2C)c(=O)c2ccc(C)nc21 fall in?
Result: range 2

Request: Which class does O=C(c1ccc(-c2ccccc2)cc1)N1CCC(C(=O)N2CCCC2)CC1 fall in?
Result: range 2
